Kindly state pKd for each of the entries shown.
Target: T1, Dimeric fibrinogen-like domain of mouse (Mus musculus) Ang-2 conjugated to human IgG1 (mouse (Mus musculus))
T1 construct: also called Dimeric Mouse Ang-2FD; Mouse Ang-2FD-hFc
T1 sequence (chain, as listed by the source limits assumed): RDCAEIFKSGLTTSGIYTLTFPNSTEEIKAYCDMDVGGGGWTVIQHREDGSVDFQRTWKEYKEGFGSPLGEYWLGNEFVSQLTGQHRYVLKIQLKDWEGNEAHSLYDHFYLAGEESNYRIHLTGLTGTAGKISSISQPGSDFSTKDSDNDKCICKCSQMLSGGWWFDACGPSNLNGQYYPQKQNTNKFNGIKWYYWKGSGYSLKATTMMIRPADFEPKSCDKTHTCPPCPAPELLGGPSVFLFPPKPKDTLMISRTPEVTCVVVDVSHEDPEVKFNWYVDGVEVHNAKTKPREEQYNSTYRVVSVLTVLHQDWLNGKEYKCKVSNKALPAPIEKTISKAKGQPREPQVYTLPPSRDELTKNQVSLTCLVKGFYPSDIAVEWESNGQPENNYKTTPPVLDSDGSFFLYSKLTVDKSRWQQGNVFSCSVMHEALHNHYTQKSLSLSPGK
Experiment: SPR, antibody captured, room temp
Formally, pKd is defined as -log10 of the concentration c, with c in mol/L.

Query: Item under review: H2M742N (antibody, V domains shown) VH: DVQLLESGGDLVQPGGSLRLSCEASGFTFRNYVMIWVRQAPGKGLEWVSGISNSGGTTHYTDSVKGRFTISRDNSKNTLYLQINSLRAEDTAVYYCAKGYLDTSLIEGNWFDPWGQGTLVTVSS VL: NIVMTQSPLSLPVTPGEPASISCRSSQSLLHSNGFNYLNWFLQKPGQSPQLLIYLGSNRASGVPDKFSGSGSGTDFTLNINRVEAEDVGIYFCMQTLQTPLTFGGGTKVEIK . Reported pKd?
Response: 9.21

Query: Same read-out for H2M743N (antibody, V domains shown) VH: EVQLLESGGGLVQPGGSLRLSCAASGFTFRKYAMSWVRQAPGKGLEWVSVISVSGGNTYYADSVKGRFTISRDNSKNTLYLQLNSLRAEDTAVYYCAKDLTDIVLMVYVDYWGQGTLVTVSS VL: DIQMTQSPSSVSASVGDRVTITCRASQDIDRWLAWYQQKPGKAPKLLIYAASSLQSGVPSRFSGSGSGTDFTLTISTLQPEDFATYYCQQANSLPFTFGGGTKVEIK ?
Response: 9.05
